- ASSAY INFO: Cytotoxicity assay (MTT assay), chrysene treated 48 hours
- Format: cell-based, human
- CONDITION LABEL: human, HepG2 cells; HepG2, MTT, 48 hours; read-out: IC20 (concentration exhibiting 80% cell survival rate)
MEASURED QUANTITY: IC20 at 48 h (µM)
One number for each entry, in µM.

Form: compound = c1ccc2c(c1)ccc1c3ccccc3ccc21 [chrysene] ; IC20 at 48 h = 35
